src = ChEMBL document CHEMBL5724696

- Tested on: U2OS
- assay.details: Here: values are normalized to the positive (DMSO; basel flux = defined as 100% suppression) and negative (250nM Torin1; mTOR inhibitor; maximal inducer of autophagy defined as 0% suppression) control compounds and represented as % of ER-phagy suppression. […] The impact of autophagy induction on cells is complex and depends on the affected target. […] Of note, treatment concentrations may be sub-optimal for specific compounds, leading to false negative annotations.
- Assay type: functional, Homo sapiens
- experimental.setup: Compound Concentration 1 uM, Timepoint 24 hours, Culturing Media DMEM, 1 % Penicillin/Streptomycin, 10% Fetal bovin serum Add-On: blasticidin, Screening Media Control DMEM, 10% Fetal bovin serum Add-On: 1 µg/ml Doxycyclin, Screening Media Samples DMEM, 10% Fetal bovin serum Add-On: 1 µg/ml Doxycyclin 250nM Torin1
Item-by-item account of ER-phagy suppression
Report the value in % with no unit label.

# mol.smiles, observed.property, val
rows = [
    ("COc1cc(Nc2nc(C)cc(-c3cnn4nc(OC)ccc34)n2)cc(C(F)(F)F)c1", "ER-phagy suppression", -32.8701),
    ("O=C(O)CSc1ncnc2cc(-c3cc4ccccc4s3)sc12", "ER-phagy suppression", -17.1874),
    ("CC1=C(C#N)C(c2ccc3[nH]nc(C)c3c2)C(C#N)=C(C)N1", "ER-phagy suppression", 7.362),
    ("Cc1cnc(-c2cc(Cl)ccc2F)cc1-n1c(=O)n(CC(N)=O)c2cnccc21", "ER-phagy suppression", -13.0499),
    ("C[C@@H](N)[C@H]1CC[C@H](C(=O)Nc2ccncc2)CC1.Cl.Cl", "ER-phagy suppression", -12.4028),
]

# input # ER-phagy suppression lookup, item CN1CCC(COc2cnc(-c3cccc(Cn4nc(-c5cccc(C#N)c5)ccc4=O)c3)nc2)CC1
# output 9.179

# input Try the molecule Cc1ccc(-c2ccc3c(ccc4sc5c(c43)NC[C@@H](C)NC5=O)n2)cn1
# output 5.52

# input Try the molecule CN1C(=O)[C@@H](N2CCc3c(nn(Cc4ccccc4)c3Br)C2=O)COc2ccccc21
# output -12.0413

# input Try the molecule OCCn1cc(-c2ccc3c(c2)CCC3=NO)c(-c2ccncc2)n1
# output 0.6971

###

- System: U2OS
- assay.details: Here: values are normalized to the negative (DMSO; defined as 0% autophagy induction) and positive (250nM Torin1; mTOR inhibitor; defined as maximal inducer of autophagy = 100%) control compounds and represented as % of autophagy induction. […] The impact of autophagy induction on cells is complex and depends on the affected target. As such, the magnitude of a phenotype may not be equally mirrored in the %-value of autophagy induction and vice versa. The dynamics of the induction may indicate the mode of activation: e.g. activation via phosphorylation or a signaling cascade may occur fast, while activation via transcription factors may take considerably longer. […] Of note, treatment concentrations may be sub-optimal for specific compounds, leading to false negative annotations.
- Type: functional, Homo sapiens
- experimental.setup: Compound Concentration 0.5 uM, Timepoint 60 hours, Culturing Media DMEM, 1 % Penicillin/Streptomycin, 10% Fetal bovin serum Add-On: No, Screening Media Control DMEM, Screening Media Samples DMEM
observed.property: autophagy induction (%)
Report the value in % with no unit label.

Check out these entries, answers already filled in.
# molecule, val
records = [
    ("N#Cc1ccc(NC(=O)Nc2ccccc2Br)c2nn[nH]c12", 1.525),
    ("O=C1O[C@]2(CC[C@H](C(=O)Nc3ccn(-c4ccccc4F)n3)CC2)c2cnccc21 [MK-0557]", -10.434),
    ("Cl.Cl.Cl.c1ccc(N2CCN(Cc3nc4ccccc4[nH]3)CC2)nc1", -5.738),
]

# input # autophagy induction lookup, item COc1ccc(Br)cc1S(=O)(=O)NC(=O)/C=C/c1ccccc1Cc1ccc2ccccc2c1
# output 1.1971

# input Try the molecule N#Cc1c[nH]c2c(C(=O)N3CCN(CCc4ccc(F)cc4)CC3)cccc12 [PRUVANSERIN]
# output -11.1897

# input Try the molecule O=C(O)COc1cccc(CN(Cc2ccc(-n3cccn3)cc2)S(=O)(=O)c2cccnc2)c1
# output -1.697
